Below, IC50 values reported for Nitric oxide synthase 3 (Homo sapiens, UniProt P29474) across several publications.

{"columns": ["record_smiles", "units_label", "inequality_symbol", "IC50"],
 "data": [
  ["CNc1cc(C)cc(C)n1", "µM", "=", 30],
  ["NC1=NCCSCC1", "µM", "=", 43.6],
  ["CN1CCCCC1=N", "µM", ">", 100],
  ["CN(Cc1cc(Cl)ccc1C#N)C1CCN(CC2CC2)CC1", "µM", "=", 0.86]
]}

---

Below, IC50 values reported for Nitric oxide synthase 3 (Homo sapiens, UniProt P29474) across several publications.
Just a reminder that ties go to not met: only IC50 strictly below 5 µM counts as met.

{"columns": ["molecule", "category"],
 "data": [
  ["CCc1cc(-c2cccc(N)n2)c(OC)cc1CCCN(C)C", "not met"],
  ["CCCC1N=C(N)CC1C (centres undefined)", "met"],
  ["CC1CCN=C1N (centres undefined)", "not met"],
  ["CC(=N)NC[C@@H](F)CC[C@@H](N)C(=O)O", "not met"],
  ["COc1ccnc(CSc2nc3cccnc3[nH]2)c1", "not met"],
  ["CCCCC1CSC(N)=N1 (centres undefined)", "not met"],
  ["NC1=NCCCCC1", "not met"],
  ["N=C1CCCCN1", "met"]
]}

---

pIC50: −log10 of the molar value.
Below, pIC50 values reported for Nitric oxide synthase 3 (Homo sapiens, UniProt P29474) across several publications.
recorded_metric: pIC50

{"columns": ["compound", "experimental_system", "recorded_metric", "inequality_symbol", "recorded_value"],
 "data": [
  ["Cc1ccc2oc(O)nc2c1", "Nitric oxide synthase 3 (Homo sapiens, UniProt P29474)", "pIC50", "=", 4.97],
  ["CCCN(Cc1cc(Cl)ccc1C#N)C1CCNCC1", "Nitric oxide synthase 3 (Homo sapiens, UniProt P29474)", "pIC50", "=", 5.77],
  ["Br.CC(=N)Nc1ccc(C(=O)Nc2ccc(F)cc2)cc1", "Nitric oxide synthase 3 (Homo sapiens, UniProt P29474)", "pIC50", "<", 5.00],
  ["NC1=Nc2ccc(Cl)cc2[C@H]2CCC[C@@H]12", "Nitric oxide synthase 3 (Homo sapiens, UniProt P29474)", "pIC50", "=", 5.21],
  ["CC(=N)NCCSCC[C@H](N)C(=O)O", "Nitric oxide synthase 3 (Homo sapiens, UniProt P29474)", "pIC50", "=", 4.47],
  ["NC1=NC(C2CCC2)Nc2cccc(F)c21 (configuration not stated)", "Nitric oxide synthase 3 (Homo sapiens, UniProt P29474)", "pIC50", "=", 5.34],
  ["CC1=CC(N)=NCC1C (configuration not stated)", "Nitric oxide synthase 3 (Homo sapiens, UniProt P29474)", "pIC50", "=", 6.28]
]}

---

Below, log10 of IC50 values reported for Nitric oxide synthase 3 (Homo sapiens) across several publications.
# experimental_system: Nitric oxide synthase 3 (Homo sapiens)
# Sequence (P29474 whole entry): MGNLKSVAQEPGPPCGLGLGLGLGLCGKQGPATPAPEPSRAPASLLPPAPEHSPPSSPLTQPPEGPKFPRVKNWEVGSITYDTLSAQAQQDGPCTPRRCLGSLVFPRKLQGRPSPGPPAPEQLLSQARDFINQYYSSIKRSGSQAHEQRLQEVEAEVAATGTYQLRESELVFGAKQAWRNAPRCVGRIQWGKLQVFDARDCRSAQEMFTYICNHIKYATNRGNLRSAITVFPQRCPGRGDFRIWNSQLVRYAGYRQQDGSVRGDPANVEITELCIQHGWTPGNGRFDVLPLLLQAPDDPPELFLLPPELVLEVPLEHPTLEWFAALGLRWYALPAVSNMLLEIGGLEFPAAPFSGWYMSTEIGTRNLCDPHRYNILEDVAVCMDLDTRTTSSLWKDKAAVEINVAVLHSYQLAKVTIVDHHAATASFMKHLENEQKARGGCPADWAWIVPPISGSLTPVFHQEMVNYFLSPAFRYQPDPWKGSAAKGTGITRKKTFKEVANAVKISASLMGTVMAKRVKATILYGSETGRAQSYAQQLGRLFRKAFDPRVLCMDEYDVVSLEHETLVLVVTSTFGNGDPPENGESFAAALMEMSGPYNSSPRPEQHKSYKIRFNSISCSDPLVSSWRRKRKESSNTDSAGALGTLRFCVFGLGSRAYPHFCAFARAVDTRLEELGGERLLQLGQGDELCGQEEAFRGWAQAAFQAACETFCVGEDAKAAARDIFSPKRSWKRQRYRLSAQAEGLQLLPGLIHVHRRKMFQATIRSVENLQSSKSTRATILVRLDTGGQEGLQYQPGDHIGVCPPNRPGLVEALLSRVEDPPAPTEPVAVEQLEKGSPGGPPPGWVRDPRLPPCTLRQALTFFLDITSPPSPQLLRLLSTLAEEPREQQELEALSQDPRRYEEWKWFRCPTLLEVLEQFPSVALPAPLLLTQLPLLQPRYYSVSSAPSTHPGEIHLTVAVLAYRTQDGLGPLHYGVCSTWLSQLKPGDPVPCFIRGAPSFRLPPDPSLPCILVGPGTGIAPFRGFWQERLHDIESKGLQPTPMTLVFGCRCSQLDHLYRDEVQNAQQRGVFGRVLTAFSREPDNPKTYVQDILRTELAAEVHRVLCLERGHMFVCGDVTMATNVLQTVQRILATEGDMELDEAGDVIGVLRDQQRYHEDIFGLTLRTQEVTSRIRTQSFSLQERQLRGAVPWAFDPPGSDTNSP
recorded_metric: log10 of IC50 (log10 of the value in µM)

{"columns": ["molecule", "recorded_metric", "recorded_value"],
 "data": [
  ["NC1=Nc2ccc(Br)cc2[C@H]2CCC[C@@H]12", "log10 of IC50", 1.23],
  ["CC1(C)C=CC(N)=NC1", "log10 of IC50", 1.49],
  ["COC(=O)c1ccc(CN2CCC(Nc3nc4ccc(N=C(N)c5cccs5)cc4s3)CC2)cc1", "log10 of IC50", 0.72],
  ["N=C1CCOCC(CC[N+](=O)[O-])N1 (configuration not stated)", "log10 of IC50", 1.69],
  ["CCCCN1CCC(N(C)Cc2cc(Cl)ccc2C#N)CC1", "log10 of IC50", -0.17],
  ["CCOC(=O)N1CCC2(CC1)N=C(N)c1sccc1N2", "log10 of IC50", 2.00],
  ["CCSC(=N)N", "log10 of IC50", 0.11],
  ["CC(C)CN1CCC(N(C)Cc2cc(Cl)ccc2C#N)CC1", "log10 of IC50", -0.27],
  ["NCCC1COCCC(N)=N1 (configuration not stated)", "log10 of IC50", 2.39],
  ["Cc1ccc2c(c1)[C@H]1CCC[C@H]1C(N)=N2", "log10 of IC50", 1.32],
  ["CCC1CC(N)=NC1C (configuration not stated)", "log10 of IC50", 0.80],
  ["CC(C)C[C@H](NC(=O)/C=C/c1ccc(Cl)c(Cl)c1)C(=O)O", "log10 of IC50", 1.47],
  ["CN1CCC(N(C)Cc2cc(Cl)ccc2Br)CC1", "log10 of IC50", -0.09],
  ["CCc1c(C)ccnc1N", "log10 of IC50", 0.52],
  ["N=C(Nc1ccc2sc(NC3CCN(Cc4ccc(F)cc4)CC3)nc2c1)c1cccs1", "log10 of IC50", 1.11],
  ["CCSC(=N)Nc1ccc2nc(N)sc2c1", "log10 of IC50", 0.96],
  ["CCCC1CC(N)=NC1CC (configuration not stated)", "log10 of IC50", 2.36],
  ["C[C@@H]1CCCC(N)=NC1", "log10 of IC50", 1.59],
  ["N=C(Nc1ccc2sc(NCCc3ccccn3)nc2c1)c1cccs1", "log10 of IC50", 0.78],
  ["NC1=Nc2cc(CCCNCc3cccc(Cl)c3)ccc2[C@H]2CCC[C@@]12F", "log10 of IC50", 1.58],
  ["COc1ccnc(CSc2nc3ccccc3[nH]2)c1", "log10 of IC50", 1.42],
  ["CC(C)N(Cc1cc(Cl)ccc1C#N)C1CCNCC1", "log10 of IC50", -0.24],
  ["CC1CC(N)=NC1Cc1ccccc1 (stereo in doubt; 16)", "log10 of IC50", 2.81],
  ["NC(=Nc1ccc(CCNCCc2cccc(Cl)c2)cc1)c1cccs1", "log10 of IC50", 0.54],
  ["O=C(/C=C/c1ccc(Cl)c(Cl)c1)N[C@@H](Cc1ccc(F)cc1)C(=O)O", "log10 of IC50", 2.21]
]}

---

Below, pIC50 values reported for Nitric oxide synthase 3 (Homo sapiens, UniProt P29474) across several publications.
pIC50: −log10 of the molar value.
recorded_metric: pIC50

{"columns": ["compound", "inequality_symbol", "recorded_value"],
 "data": [
  ["Cc1ccc2[nH]c(=O)oc2c1", "<", 4.30],
  ["NC1=NCCCN1", "=", 4.06],
  ["CCCCc1cnc2[nH]c(CCc3cc(OC)ccn3)nc2c1", "=", 4.06],
  ["CC1CCC(N)=NC1 (stereo not given)", "=", 4.24],
  ["CCC1=CC(=N)NCC1", "=", 5.82],
  ["CCCN1CCC(N(C)Cc2cc(Cl)ccc2C#N)CC1", "=", 5.96],
  ["N=C(Nc1ccc2c(c1)CCCN2CCCNCCO)c1cccs1", "=", 4.41],
  ["CCNCCN1CCCc2cc(NC(=N)c3cccs3)ccc21", "=", 4.33],
  ["CC1CN=C(N)CCS1 (stereo not given)", "=", 5.39],
  ["NC1=NCCCS1", "=", 5.15],
  ["COc1ccnc(CCc2nc3ncccc3[nH]2)c1", "=", 3.95],
  ["CC1CC(N)=NCCS1 (stereo not given)", "=", 5.30],
  ["CC1=C(C)C(N)=NCC1", "=", 6.49],
  ["CCOC(=O)N1CCC(Nc2ccccn2)CC1", "<", 4.00],
  ["NC1=NC(c2ccccc2)CCCC1 (stereo not given)", "=", 3.67],
  ["CCSC(N)=Nc1ccc2sc(N)nc2c1", "=", 4.92],
  ["CN(Cc1cc(Cl)ccc1C#N)C1CCNCC1", "=", 5.96],
  ["CC1=CC(N)=NC(C)C1 (stereo not given)", "=", 6.62],
  ["CC1CC(N)=NC(C)C1 (stereo not given)", "=", 6.52],
  ["CN(Cn1c(=O)oc2ccc(Cl)cc21)c1ccccn1", "=", 5.08],
  ["NC1=Nc2ccc([N+](=O)[O-])cc2[C@H]2CCC[C@@H]12", "=", 4.47],
  ["CCCC1CCCCC(N)=N1 (stereo not given)", "=", 5.02],
  ["CCC1CSCCC(N)=N1 (stereo not given)", "=", 5.96],
  ["CCC1CCNC(=N)C1 (stereo not given)", "=", 4.89],
  ["COc1ccnc(CCc2nc3cc(-c4ccccc4)cnc3[nH]2)c1", "=", 4.74],
  ["CCCCCC1N=C(N)CC1C(F)(F)F (stereo in doubt; 23)", "=", 2.77],
  ["CN(Cc1cc(Cl)ccc1C#N)C1CCCNCC1 (stereo not given)", "=", 5.36],
  ["CC(=N)NCCCC[C@H](N)C(=O)Nc1nnn[nH]1", "<", 4.00],
  ["N=C(Nc1ccc2c(c1)CCCN2CCNCCO)c1cccs1", "=", 4.48],
  ["CCC[C@@H](CCN=C(N)SC)[C@H](N)C(=O)O", "<", 3.00]
]}
